- Assay overview: Identifying Small Molecule Inhibitors of Pancreatic Cancer Stem Cells (SN12C, Spheroid) (AID 1259360)
- Condition: SN12C spheroid viability; series mostly up to 46.1 µM
Records with an inconclusive call do not appear. Activity calls are given as the source filed them. Calls follow the shape of the dose curve; as a rule, active = well fitted cell-killing curve with a large enough effect; inconclusive = small, poorly fitted or top-dose-only effect, or effect the other way; inactive = flat fitted curve, though single readings scatter.
Please reply with one of these outcomes: 1 for active, 0 for inactive

In: Kindly provide the recorded test outcome for the following molecule: COc1ccc(C=Cc2cc(OC)c(OC)c(OC)c2)cc1O
Out: 1

In: Kindly provide the recorded test outcome for the following molecule: CC(=O)OCCN1C(=O)c2c(C)nc3ccc(S(=O)(=O)N4CCOCC4)cc3c2C1=O
Out: 0

In: Kindly provide the recorded test outcome for the following molecule: O=C(Nc1cc(C(F)(F)F)cc(C(F)(F)F)c1)c1cc(Cl)ccc1O
Out: 1

In: Kindly provide the recorded test outcome for the following molecule: O=C(NC1CCNCC1)c1[nH]ncc1NC(=O)c1c(Cl)cccc1Cl
Out: 1

In: Kindly provide the recorded test outcome for the following molecule: CNc1nccc(-c2cccnc2Oc2cc(C(=O)Nc3cccc(C(F)(F)F)c3)ccc2C)n1
Out: 1

In: Kindly provide the recorded test outcome for the following molecule: Cc1cn(-c2cc(NC(=O)c3ccc(C)c(Nc4nccc(-c5cccnc5)n4)c3)cc(C(F)(F)F)c2)cn1
Out: 0

In: Kindly provide the recorded test outcome for the following molecule: CC(C)c1ccc(Cn2ccc3c4c(N)nc(NC5CC5)nc4ccc32)cc1
Out: 1

In: Kindly provide the recorded test outcome for the following molecule: CN(C)CCCN=c1c2ccccc2n(C)c2[nH]c(=O)n(C)c(=O)c12
Out: 0

In: Kindly provide the recorded test outcome for the following molecule: COCCn1c2c([n+](Cc3cnccn3)c1C)C(=O)c1ccccc1C2=O
Out: 1

In: Kindly provide the recorded test outcome for the following molecule: C=CCn1c(=O)c2cnc(Nc3ccc(N4CCN(C)CC4)cc3)nc2n1-c1cccc(C(C)(C)O)n1
Out: 1

In: Kindly provide the recorded test outcome for the following molecule: Clc1ccc2ncc(-c3cccc(NC4CNC4)n3)n2c1
Out: 0

In: Kindly provide the recorded test outcome for the following molecule: Cn1c2cc(S(C)=O)sc2c2cnn(Cc3cccc(N)c3)c(=O)c21 (centres undefined)
Out: 0

In: Kindly provide the recorded test outcome for the following molecule: O=C(c1ccc(Nc2nccc(-c3cc4ccccc4s3)n2)cc1)N1CCC(N2CCCC2)CC1
Out: 1

In: Kindly provide the recorded test outcome for the following molecule: CCCCN1CCC(CNC(=O)c2c3n(c4ccccc24)CCCO3)CC1
Out: 0

----------
- System: MKL-2
- Assay overview: qHTS assay to identify novel small-molecules to repurpose for Merkel cell carcinoma treatment (AID 1296009); also: nearly all actives have a fitted effect of over 60% in size
- Condition: MCC and control cell lines, CellTiter-Glo viability, 72 h; series mostly up to 46 µM
- Description: MCC is a rare and aggressive neuroendocrine skin cancer with limited treatment options. Approximately 80% of MCCs have the Merkel cell polyomavirus (MCPyV) DNA integrated into the host genome (virus-positive: VP-MCC) and viral oncogenes drive oncogenesis. The remaining MCCs are virus-negative (VN-MCC) and are caused by UV mutagenesis. […] Using cell viability as a readout (CellTiter-Glo assay) we found both overlapping and distinct drugs that can be repurposed for the treatment of VP-MCC and VN-MCC. […]
Records with an inconclusive call do not appear. Calls of active or inactive are those of the source. The call rests on the fitted dose curve; in most records, active means well fitted inhibition curve with a large enough effect; inconclusive means small, poorly fitted or top-dose-only effect; inactive means flat fitted curve, though single readings scatter.
Please reply with one of these outcomes: YES = active, NO = inactive

In: Kindly provide the recorded test outcome for the following molecule: OCCCNc1cc(-c2ccnc(Nc3cccc(Cl)c3)n2)ccn1
Out: YES

In: Kindly provide the recorded test outcome for the following molecule: COc1ccc(F)c(F)c1C(=O)c1cnc(NC2CCN(S(C)(=O)=O)CC2)nc1N
Out: YES

In: Kindly provide the recorded test outcome for the following molecule: Cc1cc(Nc2cc(N3CCN(C)CC3)nc(Sc3ccc(NC(=O)C4CC4)cc3)n2)n[nH]1
Out: NO

In: Kindly provide the recorded test outcome for the following molecule: CNC(=O)c1ccccc1Nc1nc(Nc2ccc(N3CCOCC3)cc2OC)ncc1Cl
Out: NO

In: Kindly provide the recorded test outcome for the following molecule: CCOc1ccccc1OCCNC(C)Cc1ccc(OC)c(S(N)(=O)=O)c1 (centres undefined)
Out: NO

In: Kindly provide the recorded test outcome for the following molecule: CNC(=O)c1cc(Oc2ccc(NC(=O)Nc3cc(C(C)(C)C)nn3-c3ccc4ncccc4c3)c(F)c2)ccn1
Out: NO

In: Kindly provide the recorded test outcome for the following molecule: Cc1cc(N2CCOCC2)cc2[nH]c(-c3c(NC[C@@H](O)c4cccc(Cl)c4)cc[nH]c3=O)nc12
Out: NO

In: Kindly provide the recorded test outcome for the following molecule: COc1ccc(OC)c(-c2nnc3ccc(-c4ccc(OC)c(O[C@@H]5CCOC5)c4)nn23)c1
Out: YES

In: Kindly provide the recorded test outcome for the following molecule: O=c1c2ccccc2nc2n1CCc1c-2[nH]c2ccccc12
Out: NO

In: Kindly provide the recorded test outcome for the following molecule: CC(C)c1nn(-c2c(Cl)cccc2Cl)c2nc(Cc3ccc(OCCO)cc3)[nH]c(=O)c12
Out: YES

In: Kindly provide the recorded test outcome for the following molecule: O=C(NCCCNc1nc(Nc2cccc(NC(=O)N3CCCC3)c2)ncc1I)c1cccs1
Out: NO

In: Kindly provide the recorded test outcome for the following molecule: CNC(=O)c1ccc(N2C(=S)N(c3cnc(C#N)c(C(F)(F)F)c3)C(=O)C23CCC3)cc1F
Out: YES

In: Kindly provide the recorded test outcome for the following molecule: CCCCOc1c(C(=O)c2c(F)cc(C)cc2F)cnc2n[nH]cc12
Out: NO

In: Kindly provide the recorded test outcome for the following molecule: NC1(Cc2ccc(Cl)cc2)CCN(c2ncnc3[nH]ccc23)CC1
Out: NO

In: Kindly provide the recorded test outcome for the following molecule: CC(C)[C@H](C(=O)Nc1ccc(C(=O)NO)cc1)c1ccccc1
Out: YES

In: Kindly provide the recorded test outcome for the following molecule: c1ccc2c(CCNc3ccc(Nc4ccncc4)cc3)c[nH]c2c1
Out: YES

In: Kindly provide the recorded test outcome for the following molecule: COc1cc2ncn(-c3cc(OCc4ccccc4C(F)(F)F)c(C(N)=O)s3)c2cc1OC
Out: NO

In: Kindly provide the recorded test outcome for the following molecule: CC1(C)CC(=O)c2c(C(F)(F)F)nn(-c3ccc(C(N)=O)c(NC4CCC(OC(=O)CN)CC4)c3)c2C1 (centres undefined)
Out: NO

In: Kindly provide the recorded test outcome for the following molecule: CN1CCC(CNc2ccc3ncc(-c4cccc(OC(F)(F)F)c4)n3n2)CC1
Out: NO

In: Kindly provide the recorded test outcome for the following molecule: COc1cc(C(C)C)c2c(c1)S(=O)(=O)N(COc1cc(=O)n3cccc(OCCN4CCCCC4)c3n1)C2=O
Out: NO

In: Kindly provide the recorded test outcome for the following molecule: CCOc1cc2ncc(C#N)c(Nc3ccc(F)c(Cl)c3)c2cc1NC(=O)C=CCN(C)C
Out: YES

In: Kindly provide the recorded test outcome for the following molecule: Nc1nc(-c2nn(Cc3ccccc3F)c3ncccc23)nc(N)c1N1CCOCC1
Out: NO

In: Kindly provide the recorded test outcome for the following molecule: O=C(c1cncc(Br)c1)N1CCC(N2CCCC2)CC1
Out: NO

In: Kindly provide the recorded test outcome for the following molecule: NCC(=O)Nc1ccc(-n2nc(C(F)(F)F)cc2-c2ccc3c(ccc4ccccc43)c2)cc1
Out: NO

In: Kindly provide the recorded test outcome for the following molecule: Cc1c(Cn2c(C)nc3c(C(=O)O)cc(N4CCOCC4)cc32)cccc1C(F)(F)F
Out: NO

In: Kindly provide the recorded test outcome for the following molecule: CCN(CC)CCNC(=O)c1ccc2nc(-c3ccccc3)c(-c3ccc(CN4CCC(n5c(=O)[nH]c6ccccc65)CC4)cc3)nc2c1
Out: YES

In: Kindly provide the recorded test outcome for the following molecule: Cc1cccc(C=NNc2cc(N3CCOCC3)nc(OCCc3ccccn3)n2)c1
Out: YES

In: Kindly provide the recorded test outcome for the following molecule: Nc1ccc(S(=O)(=O)Nc2ncccn2)cc1
Out: NO

In: Kindly provide the recorded test outcome for the following molecule: COc1cccc2c(NCc3ccccc3)nc(-n3c(N)nc4ccccc43)nc12
Out: YES

In: Kindly provide the recorded test outcome for the following molecule: CC(C)Nc1cc(C(F)(F)F)cc2nc(NC(=O)c3cccnc3)nn12
Out: NO

In: Kindly provide the recorded test outcome for the following molecule: C=CC(=O)Nc1cccc(Oc2nc(Nc3ccc(N4CCN(C)CC4)cc3OC)ncc2Cl)c1
Out: NO

In: Kindly provide the recorded test outcome for the following molecule: CCCn1c(=O)c2[nH]c(-c3cnn(Cc4cccc(C(F)(F)F)c4)c3)nc2n(CC)c1=O
Out: NO

In: Kindly provide the recorded test outcome for the following molecule: COc1cc(C(=O)N2CCC(N3CCN(C)CC3)CC2)ccc1Nc1ncc2c(n1)N(C)c1ccccc1C(=O)N2C
Out: YES

In: Kindly provide the recorded test outcome for the following molecule: CCCCc1nc2cc(C=CC(=O)NO)ccc2n1CCN(CC)CC
Out: YES

Origin of measurements: PubChem BioAssay (NCATS)
